Reference for the values: patent US20250382363A1

molecular target: T1, human a-Mesothelin (Acro Biosystems; MSN_H5223) (human, UniProt Q13421 296-580, limits assumed); assay: SPR, mesothelin immobilised, scFv analyte, 1:1 fit
T1 construct: Bought protein immobilised on the SPR chip; Printed as 'a-Mesothelin' but used as the antigen for the anti-MSLN scFvs; also called Human MSLN; MSLN
T1 sequence (Q13421 other isoform, or with tags, fused parts or gaps limits assumed): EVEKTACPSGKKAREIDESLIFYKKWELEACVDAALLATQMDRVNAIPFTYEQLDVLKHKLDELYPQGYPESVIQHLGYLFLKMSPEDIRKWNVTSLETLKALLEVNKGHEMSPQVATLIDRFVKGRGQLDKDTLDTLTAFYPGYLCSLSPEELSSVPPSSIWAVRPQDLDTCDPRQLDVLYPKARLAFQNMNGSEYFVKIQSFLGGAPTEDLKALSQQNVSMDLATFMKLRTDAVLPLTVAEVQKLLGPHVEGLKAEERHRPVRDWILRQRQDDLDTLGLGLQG
Reported n-fold to wt is given for each of the following binders.
Answer format: number, then unit.

[in] Suppose we examine the binder PRO2918 (scFv 54-21-H03-sc01_(L12R, V103T, L144Q)) (scFv, VH substitutions, AHo numbering; also called PRO1922-L12R-V103T-L144Q) scFv: DIQMTQSPSSLSASVGDRVTITCQASESIYSSLAWYQQKPGKAPKLLIYLASTLASGVPSRFSGSGSGTDFTLTISSLQPEDFATYYCQSTDYTTSTHRNSFGTGTKVTVLGGGGGSGGGGSGGGGSGGGGSEVQLVESGGGRVQPGGSLRLSCAASGFSFSTTYYMCWVRQAPGKGLEWIGCTNTASSVRTYYATWAKGRFTISRDNSKNTVYLQMNSLRAEDTATYYCARDMGFADYALNLWGQGTQVTVSS ; what n-fold to wt value has been reported?
[out] 1.3 fold

[in] Same question for PRO2943 (scFv 54-21-H03-sc01_(T146E)) (scFv, PRO1922 variant; VH substitution, AHo numbering; also called PRO1922 T146E) scFv: DIQMTQSPSSLSASVGDRVTITCQASESIYSSLAWYQQKPGKAPKLLIYLASTLASGVPSRFSGSGSGTDFTLTISSLQPEDFATYYCQSTDYTTSTHRNSFGTGTKVTVLGGGGGSGGGGSGGGGSGGGGSEVQLVESGGGLVQPGGSLRLSCAASGFSFSTTYYMCWVRQAPGKGLEWIGCTNTASSVRTYYATWAKGRFTISRDNSKNTVYLQMNSLRAEDTAVYYCARDMGFADYALNLWGQGTLVEVSS please.
[out] 1.8 fold

[in] Subsequent entry: PRO2994 (scFv 54-21-H03-sc01_(P48A)) (scFv, PRO1922 variant; VH substitution, AHo numbering; also called PRO1922 P48A) scFv: DIQMTQSPSSLSASVGDRVTITCQASESIYSSLAWYQQKPGKAPKLLIYLASTLASGVPSRFSGSGSGTDFTLTISSLQPEDFATYYCQSTDYTTSTHRNSFGTGTKVTVLGGGGGSGGGGSGGGGSGGGGSEVQLVESGGGLVQPGGSLRLSCAASGFSFSTTYYMCWVRQAAGKGLEWIGCTNTASSVRTYYATWAKGRFTISRDNSKNTVYLQMNSLRAEDTAVYYCARDMGFADYALNLWGQGTLVTVSS
[out] 0.8 fold

[in] Queued: PRO2946 (scFv 54-21-H03-sc01_(T101S)) (scFv, PRO1922 variant; VH substitution, AHo numbering; also called PRO1922 T101S) scFv: DIQMTQSPSSLSASVGDRVTITCQASESIYSSLAWYQQKPGKAPKLLIYLASTLASGVPSRFSGSGSGTDFTLTISSLQPEDFATYYCQSTDYTTSTHRNSFGTGTKVTVLGGGGGSGGGGSGGGGSGGGGSEVQLVESGGGLVQPGGSLRLSCAASGFSFSTTYYMCWVRQAPGKGLEWIGCTNTASSVRTYYATWAKGRFTISRDNSKNTVYLQMNSLRAEDSAVYYCARDMGFADYALNLWGQGTLVTVSS
[out] 1.8 fold

[in] # iterate: PRO3347 (scFv 54-21-H03-sc01_(T101S, T146S)) (scFv, PRO1922 variant; VH substitutions, AHo numbering; also called PRO1922 T101S-T146S) scFv: DIQMTQSPSSLSASVGDRVTITCQASESIYSSLAWYQQKPGKAPKLLIYLASTLASGVPSRFSGSGSGTDFTLTISSLQPEDFATYYCQSTDYTTSTHRNSFGTGTKVTVLGGGGGSGGGGSGGGGSGGGGSEVQLVESGGGLVQPGGSLRLSCAASGFSFSTTYYMCWVRQAPGKGLEWIGCTNTASSVRTYYATWAKGRFTISRDNSKNTVYLQMNSLRAEDSAVYYCARDMGFADYALNLWGQGTLVSVSS
[out] 0.9 fold

[in] Now this one: PRO3318 (scFv 54-21-H03-sc01_(L12A, T101R, L144A, T146Q)) (scFv, PRO1922 variant; VH substitutions, AHo numbering; also called PRO1922 L12A-T101R-L144A-T146Q) scFv: DIQMTQSPSSLSASVGDRVTITCQASESIYSSLAWYQQKPGKAPKLLIYLASTLASGVPSRFSGSGSGTDFTLTISSLQPEDFATYYCQSTDYTTSTHRNSFGTGTKVTVLGGGGGSGGGGSGGGGSGGGGSEVQLVESGGGAVQPGGSLRLSCAASGFSFSTTYYMCWVRQAPGKGLEWIGCTNTASSVRTYYATWAKGRFTISRDNSKNTVYLQMNSLRAEDRAVYYCARDMGFADYALNLWGQGTAVQVSS
[out] 1.3 fold

More entries:
[in] Please report the recorded n-fold to wt for PRO2992 (scFv 54-21-H03-sc01_(T146A)) (scFv, PRO1922 variant; VH substitution, AHo numbering; also called PRO1922 T146A) scFv: DIQMTQSPSSLSASVGDRVTITCQASESIYSSLAWYQQKPGKAPKLLIYLASTLASGVPSRFSGSGSGTDFTLTISSLQPEDFATYYCQSTDYTTSTHRNSFGTGTKVTVLGGGGGSGGGGSGGGGSGGGGSEVQLVESGGGLVQPGGSLRLSCAASGFSFSTTYYMCWVRQAPGKGLEWIGCTNTASSVRTYYATWAKGRFTISRDNSKNTVYLQMNSLRAEDTAVYYCARDMGFADYALNLWGQGTLVAVSS .
[out] 0.9 fold

[in] PRO3349 (scFv 54-21-H03-sc01_(T101R, T146E)) (scFv, PRO1922 variant; VH substitutions, AHo numbering; also called PRO1922 T101R-T146E) scFv: DIQMTQSPSSLSASVGDRVTITCQASESIYSSLAWYQQKPGKAPKLLIYLASTLASGVPSRFSGSGSGTDFTLTISSLQPEDFATYYCQSTDYTTSTHRNSFGTGTKVTVLGGGGGSGGGGSGGGGSGGGGSEVQLVESGGGLVQPGGSLRLSCAASGFSFSTTYYMCWVRQAPGKGLEWIGCTNTASSVRTYYATWAKGRFTISRDNSKNTVYLQMNSLRAEDRAVYYCARDMGFADYALNLWGQGTLVEVSS ?
[out] 1.1 fold

[in] Again, but for PRO2938 (scFv 54-21-H03-sc01_(L12A, T101S, L144A, T146Q)) (scFv, PRO1922 variant; VH substitutions, AHo numbering; also called PRO1922 L12A-T101S-L144A-T146Q) scFv: DIQMTQSPSSLSASVGDRVTITCQASESIYSSLAWYQQKPGKAPKLLIYLASTLASGVPSRFSGSGSGTDFTLTISSLQPEDFATYYCQSTDYTTSTHRNSFGTGTKVTVLGGGGGSGGGGSGGGGSGGGGSEVQLVESGGGAVQPGGSLRLSCAASGFSFSTTYYMCWVRQAPGKGLEWIGCTNTASSVRTYYATWAKGRFTISRDNSKNTVYLQMNSLRAEDSAVYYCARDMGFADYALNLWGQGTAVQVSS
[out] 0.9 fold
